Values from patent US20110091971A1

System: H1 or H9 human embryonic stem cells
protocol.summary: Activin A bioassay: differentiation of human embryonic stem cells to definitive endoderm, cell number and SOX17 intensity by high content analysis (96-well, four days)
Type: cell-based
experimental.context: supernatant concentration 1x, assay dilution 1:20; control = R&D Sys Activin A 100 ng/ml on same plate
# 1.0 = Sox 17 Intensity % of control below 3% (exclusive); 0.0 = Sox 17 Intensity % of control at/above 3%

{"columns": ["molecule", "category"],
 "data": [
  ["ACTN19: activin A variant peptide, SEQ ID 20 (protein) GLECDGKVNLCCKKQDFVSFKDIGWNDWIIAPSGYHANKCGGKCPSHIAGTSGSSLSFHSTVINHYRMRGHSPFANMGSCCIPTKLRPMSMLYYDDGQNIIKKDIQNMIVEECGCS", 1.0]
]}

Could you now consider this next molecule?
IN: Regarding ACTN23: activin A variant peptide, SEQ ID 24 (protein) GLECDGKVNYCCKKQDFVSFKDIGWNDWIIAPSGYHANKCDGKCPSHIAGTSGSSLSFHSTVINHYRMRGHSPFSDMGSCCIPTKLRPMSMLYYDDGQNIIKKDIQNMIVEECGCS , kindly confirm whether its Sox 17 Intensity % of control is beneath 3%.
OUT: 1.0
